Test system: KM12
Assay: NCI tumour cell line growth inhibition, 48 h
The source made the active and inactive calls. Rule as the data show it: active = GI50 up to about 1.1 µM and inactive = higher.
Select the correct class. Options are y for active, n for inactive and nothing else.

CCOC(=O)C(C/C=C/CO)N(C)C(=O)OC(C)(C)C (stereo unspecified) : n
N#Cc1nc(COCCOCc2ccc(F)cc2)oc1N : n
CCCCCCCCCCCCCCCCOCC(Cl)COP(=O)(O)OP(=O)(O)OCC1OC(n2cnc3c(N)ncnc32)C(O)C1O (stereo unspecified) : n
COC(=O)C1=Cc2c(OC)cc(OC)c(OC)c2[C@H](c2cc(OC)c(OC)cc2OC)C1C(=O)OC (stereo partly specified) : n
O=C1O/C(=C/c2ccccc2)C(c2ccccc2)=C1O : n

Tell me the recorded outcome of this test for `CCCCCCc1cc2cc(-c3csc(-c4ccc(OC)cc4)n3)c(=O)oc2cc1O` . n

Hi, sorry to bother you, what did the test record for CC(C)c1oc(=O)cc2c1C(O)C1OC(=O)C3(C)C(O)C4OC4C2(C)C13 (stereo unspecified) [NAGILACTONE] ? n

Dear colleague, could you share the recorded outcome for `Cc1c(S(=O)(=O)c2ccccc2)c(N)n(CCN(C)C)c1C` when you have a moment? n

Tell me the recorded outcome of this test for `Oc1nc(-c2ccc3ccccc3c2)nc2ccccc12` . n

What was the test verdict on `O=c1cc(-c2ccccc2F)[nH]c2ccc(N3CCCC3)cc12` ? y

What was the test verdict on CN(C)CC1(C)CC/C(=C\c2ccccc2)C1=O (stereo unspecified) ? n

State the result this test recorded for C=CC1(C)CCC2=C(CCC3C(C)(C(=O)OC)CCCC23C)C1=O (stereo unspecified) . n

Each compound tested received a call. Report the one for CCOC(=O)c1csc(NC(=O)C(C)N2CCCCC2)n1 (stereo unspecified) . n

Check the results log: what was the call for `Clc1ccc(/C=N/C23CC4CC(CC(C4)C2)C3)c(Cl)c1` ? n

----------
Tested on: RXF 393
Test: NCI tumour cell line growth inhibition, 48 h
Active and inactive are the calls of the source. No stated cut-off is given here; in the data, active = GI50 up to about 1.1 µM and inactive = higher.
Pick one and only one: True = active, False = inactive

Hi team, can someone confirm the assay call for Cc1c2ccncc2c(C)c2c1[nH]c1ccccc12 [ELLIPTECINE] ? True

Assay outcome for `CC1(C)NC(C)(C)/C(=N\O)C(=NO)/C1=N/O` : what was it? False

How was `CC1(C)CC(=O)c2c(nc3c4c([nH]c(-c5ccc([N+](=O)[O-])cc5)c24)CC(C)(C)C3)C1` classified in this test? False

Hi team, can someone confirm the assay call for `Cc1cc(C)n(-c2nc3ccccc3c(=O)n2-c2ccccc2)n1` ? False

Write down the call the test reported for this compound. Item: `Nc1nc(N)nc(CC(=O)O)n1` False

Dear colleague, could you share the recorded outcome for CCC1(C)C=Cc2c(cc(OC)c3c(=O)c4ccccc4n(C)c23)O1 (stereo unspecified) when you have a moment? False

----------
Tested on: TK-10
Assay: NCI tumour cell line growth inhibition, 48 h
Where a name gives a salt, the structure may show the parent alone. Calls of active or inactive are those of the source. No stated cut-off is given here; in the data, active = GI50 up to about 1.1 µM and inactive = higher.
Experimental endpoint: GI50

Reference set, count: 4
O=C1c2ccccc2-n2nnnc2C2CSCN12 (centres undefined) : > 100 µM (inactive)
O=C(CCCN1CCC(O)(c2ccc(Cl)cc2)CC1)c1ccc(F)cc1 [HALOPERIDOL] : 39.8 µM (inactive)
COc1cccc2c1C(=O)c1c(O)c3c(c(O)c1C2=O)CC(O)(C(C)=O)CC3OC1CC([N+](C)(C)C)C(O)C(C)O1 (centres undefined) : > 100 µM (inactive)
COc1cc(C(=O)C2CC3(CCC2(O)c2cc(OC)c(OC)c(OC)c2)CC(=O)Nc2ccccc2C3=O)cc(OC)c1OC (centres undefined) : > 100 µM (inactive)

Query (compound): `CC12CC3CC(C1)CC(N=[N+]=[N-])(C3)C2` ; field requested: GI50 > 100 µM (inactive)

May I ask what GI50 has been recorded for COc1cc(OC2OC(CO)C(O)C(O)C2O)c2c(O)c3c(=O)cc(C)oc3cc2c1 (centres undefined) ? > 100 µM (inactive)

Quick one: GI50 of `CN(C)c1ccc(/C=C2\Oc3ccccc3C2=O)cc1` ? > 100 µM (inactive)

So what does the record say about GI50 for `CN(C)/N=N/c1ccc(NC=O)cc1` ? > 100 µM (inactive)

// returns reported GI50 for input `Cc1nnc2nc(-c3ccc(Cl)cc3Cl)cc(-c3ccc(Cl)cc3)n12` > 100 µM (inactive)

Given the compound `O=c1cc(N2CCCC2)[nH]c(=O)n1-c1ccccc1` , what is its reported GI50? > 100 µM (inactive)

Given CC1=C(C(=O)O)N2C(=O)[C@@H](NC(=O)C(c3ccc(O)cc3)N3CSC(=S)N(C(C)C)C3)C2SC1 (some centres undefined) , state its recorded GI50. > 100 µM (inactive)

For the compound CCCCOC(=O)CC(CC(=O)OCCCC)(OC(C)=O)C(=O)OCCCC [ACETYLTRIBUTYL CITRATE] , what GI50 is on record? > 200 µM (inactive)

Item CC(C)[C@H](CCl)NC(=O)c1cccc(C(=O)N[C@H](CCl)C(C)C)n1 (stereo in doubt) has what recorded GI50? > 100 µM (inactive)

Name the recorded GI50 for `CC(=NNC(=S)Nc1ccccc1C)c1cccc(C(C)=NNC(=S)Nc2ccccc2C)n1` . 23.7 µM (inactive)

# lookup: GI50 of `Cc1cc(C)n(-c2nc3ccccc3c(=O)n2-c2ccccc2)n1` > 100 µM (inactive)

For CON(C)C(=O)C(Cc1ccccc1)NC(=O)OC(C)(C)C (centres undefined) , what is its reported GI50? > 100 µM (inactive)

----------
Test system: Malme-3M
Test: NCI tumour cell line growth inhibition, 48 h
The source made the active and inactive calls. Rule as the data show it: active = GI50 up to about 1.1 µM and inactive = higher.
Select the correct class. Options are Yes = active, No = inactive and nothing else.

Worked examples follow.
NC(=S)NNC(=O)CCC(=O)Nc1ccc(Cl)cc1Cl : No
O=C(CCc1ccccc1)CC1OC(=O)C(Cl)=C1Cl (centres undefined) : No
COc1ccc2c(c1)Cc1c(NCCN(C)C)ccc(C(=O)NCCCN(C)CCCNC(=O)c3ccc(NCCN(C)C)c4c3Nc3ccc(OC)cc3C4)c1N2 : Yes
CC(C)=CCc1c(O)c(CC2=C(O)C(CC=C(C)C)(C(=O)C(C)C)C(O)=C(C)C2=O)c(O)c(C(=O)C(C)C)c1O (centres undefined) : No
Clc1ccc(OCc2nnc3sc(-c4ccc(-c5ccc(Cl)cc5Cl)o4)nn23)c(Cl)c1 : No
NC(=O)c1cc([N+](=O)[O-])cc([N+](=O)[O-])c1 [NITROMIDE] : No
O=S(=O)(N/N=C1\CC2CCC1C2)c1ccccc1 (centres undefined) : No
S=c1nc(N2CCCCC2)ss1 : No

For `N#C/C(=C1/c2cc([N+](=O)[O-])ccc2-c2c1cc([N+](=O)[O-])cc2[N+](=O)[O-])N1CCCCC1` , what call appears in the results of this test? No

----------
Reported GI50 is given for each of the following compounds.
Test system: SNB-75
Assay: NCI tumour cell line growth inhibition, 48 h
Active and inactive are the calls of the source. Rule as the data show it: active = GI50 up to about 1.1 µM and inactive = higher.

Check out these entries, answers already filled in.
COC(=O)CCC1(CCC(=O)OC)CCCCCCC(CCC(=O)OC)(CCC(=O)OC)C(=O)C1=O : 49.1 µM (inactive)
CC(C)c1oc(=O)cc2c1C(O)C1OC(=O)C3(C)C(O)C4OC4C2(C)C13 (stereo not given) [NAGILACTONE] : 1.92 µM (inactive)
c1ccc(-c2ccc(-c3ccc(C4=NCCN4)cc3)o2)cc1 : 2.38 µM (inactive)
O=S(=O)(N/N=C1\CC2CCC1C2)c1ccccc1 (stereo not given) : > 100 µM (inactive)
Cc1ccc(-c2cc(-c3ccc(Cl)cc3)nc(/N=C3\C(=O)N(CN4CCOCC4)c4ccccc43)n2)cc1 : 25.4 µM (inactive)

API: value(readout=GI50, system=SNB-75) for record CC(=O)Nc1ccc(C(=O)NN2C(=O)C(Cl)C2c2cccc([N+](=O)[O-])c2)cc1 (stereo not given) > 100 µM (inactive)

Record lookup: for SNB-75, what GI50 belongs to `Cc1cc(C)n(-c2nc3ccccc3c(=O)n2-c2ccccc2)n1` ? > 100 µM (inactive)

Notebook entry, SNB-75 assay: GI50 of `OCCN1CCN(CCO)Cc2ccccc2OCCOc2ccccc2C1` = ? 33 µM (inactive)

Lab note: need GI50 with SNB-75 for entry `Clc1ccc(/C=N/C23CC4CC(CC(C4)C2)C3)c(Cl)c1` , please look it up. > 10 µM (inactive)

Request: GI50, test system SNB-75, entry `N#C/C(=C\c1cccc(O)c1)C(N)=O` 22.3 µM (inactive)

----------
Test system: HCT-116
Assay: NCI tumour cell line growth inhibition, 48 h
Calls of active or inactive are those of the source. Cut-off read from the data, not from the text of the source: active = GI50 up to about 1.1 µM and inactive = higher.
Experimental endpoint: GI50

N#CC1C(=O)C(=O)N(c2ccccc2)C1=O (configuration not stated) : > 100 µM (inactive)
CC(C)(C)c1ccc(C(C)(C)C)c(N2C(=O)C3ON=C(c4ccc([N+](=O)[O-])cc4)C3C2=O)c1 (configuration not stated) : 13.7 µM (inactive)
C/C(=N/NC(=S)Nc1ccc([N+](=O)[O-])cc1)c1cccc(/C(C)=N\NC(=S)Nc2ccc([N+](=O)[O-])cc2)n1 : 0.291 µM (active)
O=C(CCc1ccccc1)CC1OC(=O)C(Cl)=C1Cl (configuration not stated) : 14.8 µM (inactive)
CN(c1ccc(Cl)cc1)S(=O)(=O)c1ccc([N+](=O)[O-])cc1 : > 100 µM (inactive)
CC(C)=CC(=O)N1CCN(C(=O)C=C(C)C)CC1 : > 100 µM (inactive)
C=C1C(=O)OC2C1C(OC(=O)/C(C)=C/C)CC(O)(CCl)C1C(O)C=C(C)C21O (configuration not stated) : 6.28 µM (inactive)
C/C=C/C[C@@H](C)C(=O)C1C(=O)N[C@@H](C(C)C)C(=O)N(C)CC(=O)N(C)[C@@H](CC(C)C)C(=O)N[C@@H](C(C)C)C(=O)N(C)[C@@H](CC(C)C)C(=O)N[C@@H](C)C(=O)N[C@@H](C)C(=O)N(C)[C@@H](CC(C)C)C(=O)N(C)[C@@H](CC(C)C)C(=O)N(C)[C@@H](C(C)C)C(=O)N1C (some centres not stated) : 3.03 µM (inactive)
CC(C)CCCC(C)[C@H]1CCC(C2C[C@@H](O)[C@@H]3CC(O)[C@@H](O)C[C@]3(CO)C2=O)[C@]1(C)CCO (some centres not stated) : 20 µM (inactive)
O=C1Cc2c([nH]c3cc(Br)ccc23)-c2ccccc2N1 : 3.4 µM (inactive)

Here's the next entry for you.
# query: GI50 | item `O=[N+]([O-])c1ccc(Sc2c3ccccc3nc3ccccc23)cn1` | system: HCT-116 3.6 µM (inactive)

Data provenance: ChEMBL document CHEMBL1201862
